# system: T1, PDZD11, Q5EBL8
# T1 sequence (Q5EBL8 42-139, limits assumed, looked up): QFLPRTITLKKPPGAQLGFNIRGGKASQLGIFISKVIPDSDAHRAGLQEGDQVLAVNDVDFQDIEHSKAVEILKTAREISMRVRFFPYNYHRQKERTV
# assay explanation: holdup assay
# Set-up: key: below the threshold = too weak to quantify, mostly under pKd 3.1 to 4
# test parameters: plain residues with an end cap or a label only (N-terminal biotin on a linker: ttds)
experimental readout: pKd

Consider the reported pKd for these binders:
[[record]]
binder = "SKPTRRETEV [HPV35-E6, P27228]"
experimental_readout = "pKd"
observed = "below the threshold"

[[record]]
binder = "RPLPRKVSQL [DOCK4, Q8N1I0]"
experimental_readout = "pKd"
observed = "below the threshold"

[[record]]
binder = "RHTTSTETAV [HPV30-E6, P36809]"
experimental_readout = "pKd"
observed = "below the threshold"

[[record]]
binder = "SSLQSLETSV [ATP2B4, P23634]"
experimental_readout = "pKd"
observed = "below the threshold"

[[record]]
binder = "RLQRRRETQV [HPV18-E6, P06463]"
experimental_readout = "pKd"
observed = "below the threshold"

[[record]]
binder = "SGSRPSATVV [HPV73-E6, Q82005]"
experimental_readout = "pKd"
observed = "below the threshold"

[[record]]
binder = "QRQARSETLV [HPV59-E6, Q81964]"
experimental_readout = "pKd"
observed = "below the threshold"


Let's switch to this binder now.
Qu. Supply reported pKd belonging to this binder: RLPKIKETTV [FRMPD4, Q14CM0]
Ans. below the threshold

Where do these numbers come from? They come from paper PMC9482650.
